# System under test: protein kinase B (PKB)
# Method description: cell-based or functional assay
Numbered stars: 1 amine (or outer) side, 2 acyl side, 3 side chain; on linkers, the order of the positions; unused ones are H or OH. Square brackets hold non-standard residues; d marks the D form. * marks the point of attachment. Cholesteryloxycarbonyl = CC(C)CCC[C@@H](C)[C@H]1CC[C@H]2[C@@H]3CC=C4C[C@@H](OC(=O)*)CC[C@]4(C)[C@H]3CC[C@]12C; Ser(Me) = COC[C@H](N[*:1])C(=O)[*:2]; hLeu = CC(C)CC[C@H](N)C(=O)O; Nva = CCC[C@H](N)C(=O)O; Dap = NC[C@H](N)C(=O)O; βAla = NCCC(=O)O
Measurement name: IC50, in vitro kinase assay PKB (nM)

{"columns": ["Binder", "Reading qualifier", "Result number"],
 "data": [
  ["Cholesteryloxycarbonyl-[βAla]RPR[Nva]Y[Dap][hLeu]-NH2 (SMILES CCC[C@H](NC(=O)[C@H](CCCNC(=N)N)NC(=O)[C@@H]1CCCN1C(=O)[C@H](CCCNC(=N)N)NC(=O)CCNC(=O)O[C@H]1CC[C@@]2(C)C(=CC[C@H]3[C@@H]4CC[C@H]([C@H](C)CCCC(C)C)[C@@]4(C)CC[C@@H]32)C1)C(=O)N[C@@H](Cc1ccc(O)cc1)C(=O)N[C@@H](CN)C(=O)N[C@@H](CCC(C)C)C(N)=O) [PTR 6296]", "=", 2000],
  ["Cholesteryloxycarbonyl-[βAla]RPR[Nva]Y[Ser(Me)][hLeu]-NH2 (SMILES CCC[C@H](NC(=O)[C@H](CCCNC(=N)N)NC(=O)[C@@H]1CCCN1C(=O)[C@H](CCCNC(=N)N)NC(=O)CCNC(=O)O[C@H]1CC[C@@]2(C)C(=CC[C@H]3[C@@H]4CC[C@H]([C@H](C)CCCC(C)C)[C@@]4(C)CC[C@@H]32)C1)C(=O)N[C@@H](Cc1ccc(O)cc1)C(=O)N[C@@H](COC)C(=O)N[C@@H](CCC(C)C)C(N)=O) [PTR 6308]", "=", 500],
  ["Cholesteryloxycarbonyl-[dK][dK][dK]RPR[Nva]Y[Dap][hLeu]-NH2 (SMILES CCC[C@H](NC(=O)[C@H](CCCNC(=N)N)NC(=O)[C@@H]1CCCN1C(=O)[C@H](CCCNC(=N)N)NC(=O)[C@@H](CCCCN)NC(=O)[C@@H](CCCCN)NC(=O)[C@@H](CCCCN)NC(=O)O[C@H]1CC[C@@]2(C)C(=CC[C@H]3[C@@H]4CC[C@H]([C@H](C)CCCC(C)C)[C@@]4(C)CC[C@@H]32)C1)C(=O)N[C@@H](Cc1ccc(O)cc1)C(=O)N[C@@H](CN)C(=O)N[C@@H](CCC(C)C)C(N)=O) [PTR 6320]", "=", 200],
  ["H-RPH[Nva]Y[Dap][hLeu]-NH2 (SMILES CCC[C@H](NC(=O)[C@H](Cc1c[nH]cn1)NC(=O)[C@@H]1CCCN1C(=O)[C@@H](N)CCCNC(=N)N)C(=O)N[C@@H](Cc1ccc(O)cc1)C(=O)N[C@@H](CN)C(=O)N[C@@H](CCC(C)C)C(N)=O) [PTR 6368]", ">", 10000],
  ["Cholesteryloxycarbonyl-GGGGRPR[Nva]Y[Dap][hLeu]-NH2 (SMILES CCC[C@H](NC(=O)[C@H](CCCNC(=N)N)NC(=O)[C@@H]1CCCN1C(=O)[C@H](CCCNC(=N)N)NC(=O)CNC(=O)CNC(=O)CNC(=O)CNC(=O)O[C@H]1CC[C@@]2(C)C(=CC[C@H]3[C@@H]4CC[C@H]([C@H](C)CCCC(C)C)[C@@]4(C)CC[C@@H]32)C1)C(=O)N[C@@H](Cc1ccc(O)cc1)C(=O)N[C@@H](CN)C(=O)N[C@@H](CCC(C)C)C(N)=O) [PTR 6332]", "=", 1000]
]}
